Test system: HCT-116
experiment-notes: Cytotoxicity against human HCT116 cells assessed as cell growth inhibition preincubated for 24 hrs followed by compound washout measured after 72 hrs by MTT assay
Assay type: functional, cell-based
result-type: IC50 (µM)
Answers are plain numbers, in µM.

Recall and state the measured IC50 for Cc1cc2c(cc1C)-c1oc(CNc3ccc(CN4CCOCC4)cc3)c(C)c1C(=O)C2=O .
4.9

###

assay-system: NADPH--cytochrome P450 reductase (Homo sapiens)
Sequence (P16435 whole entry): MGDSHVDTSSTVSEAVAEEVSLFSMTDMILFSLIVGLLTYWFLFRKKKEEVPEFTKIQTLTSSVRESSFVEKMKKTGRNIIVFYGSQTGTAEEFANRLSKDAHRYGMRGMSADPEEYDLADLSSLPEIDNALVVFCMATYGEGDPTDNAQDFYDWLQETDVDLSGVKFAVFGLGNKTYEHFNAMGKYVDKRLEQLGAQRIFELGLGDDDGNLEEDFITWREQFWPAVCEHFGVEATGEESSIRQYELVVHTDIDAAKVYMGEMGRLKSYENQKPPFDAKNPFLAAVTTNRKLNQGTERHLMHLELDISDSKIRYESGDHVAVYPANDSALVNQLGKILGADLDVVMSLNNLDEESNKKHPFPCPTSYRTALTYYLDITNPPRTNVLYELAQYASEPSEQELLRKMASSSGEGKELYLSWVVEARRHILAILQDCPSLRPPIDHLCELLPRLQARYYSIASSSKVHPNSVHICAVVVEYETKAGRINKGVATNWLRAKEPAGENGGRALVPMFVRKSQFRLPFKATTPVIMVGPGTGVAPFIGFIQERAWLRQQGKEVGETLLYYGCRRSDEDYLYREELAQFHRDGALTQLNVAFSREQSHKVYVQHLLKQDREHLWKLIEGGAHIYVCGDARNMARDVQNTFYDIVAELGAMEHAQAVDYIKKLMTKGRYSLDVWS
experiment-notes: Substrate activity at human CPR expressed in baculovirus expression system assessed as reduction rate by measuring umol of NADPH utilized per umol of enzyme at 10 uM preincubated for 3 mins followed by NADPH addition measured at 2 secs interval for 5 mins by UV-Vis spectroscopy
Type: ADME
result-type: Activity

substance-smiles: Cc1cc2c(cc1C)-c1oc(C(=O)N3CCN(Cc4ccccc4)CC3)c(C)c1C(=O)C2=O
Activity: 90 µmol NADPH/min/µmol enzyme

substance-smiles: Cc1cc2c(cc1C)-c1occ(C)c1C(=O)C2=O
Activity: 142 µmol NADPH/min/µmol enzyme

substance-smiles: Cc1cc2c(cc1C)-c1oc(CNc3ccc(F)cc3C)c(C)c1C(=O)C2=O
Activity: 127 µmol NADPH/min/µmol enzyme

substance-smiles: Cc1cc2c(cc1C)-c1oc(CNc3ccc(CN4CCOCC4)cc3)c(C)c1C(=O)C2=O
Activity: 73 µmol NADPH/min/µmol enzyme

substance-smiles: Cc1cc2c(cc1C)-c1oc(CN3CCN(c4ccc(F)cc4)CC3)c(C)c1C(=O)C2=O
Activity: 159 µmol NADPH/min/µmol enzyme

substance-smiles: Cc1cc2c(cc1C)-c1oc(CNc3ccc(F)cc3)c(C)c1C(=O)C2=O
Activity: 105 µmol NADPH/min/µmol enzyme

Recall and state the measured Activity for Cc1cc2c(cc1C)-c1oc(CNc3cccc(F)c3)c(C)c1C(=O)C2=O .
112 µmol NADPH/min/µmol enzyme

###

Species: Homo sapiens
experiment-notes: Selectivity ratio for substrate activity at recombinant human NQO1 to substrate activity at human CPR
Decide by Selectivity ratio: equal to or exceeding 10 means True, less means False.

Please review the entries below; each comes with its answer.
substance-smiles: Cc1cc2c(cc1C)-c1oc(CNc3cccc(F)c3)c(C)c1C(=O)C2=O
classification: True

substance-smiles: Cc1cc2c(cc1C)-c1oc(CNc3ccc(F)cc3)c(C)c1C(=O)C2=O
classification: True

substance-smiles: Cc1cc2c(cc1C)-c1oc(CN3CCN(c4ccc(F)cc4)CC3)c(C)c1C(=O)C2=O
classification: False

Is reported Selectivity ratio greater than or equal to 10 here: Cc1cc2c(cc1C)-c1oc(CNc3ccc(F)cc3C)c(C)c1C(=O)C2=O
True

Is reported Selectivity ratio greater than or equal to 10 here: Cc1cc2c(cc1C)-c1oc(CNc3ccc(CN4CCOCC4)cc3)c(C)c1C(=O)C2=O
True

Is reported Selectivity ratio greater than or equal to 10 here: Cc1cc2c(cc1C)-c1oc(C(=O)N3CCN(Cc4ccccc4)CC3)c(C)c1C(=O)C2=O
True

###

assay-system: NAD(P)H dehydrogenase [quinone] 1 (Homo sapiens) (UniProt P15559)
Sequence (P15559 whole entry): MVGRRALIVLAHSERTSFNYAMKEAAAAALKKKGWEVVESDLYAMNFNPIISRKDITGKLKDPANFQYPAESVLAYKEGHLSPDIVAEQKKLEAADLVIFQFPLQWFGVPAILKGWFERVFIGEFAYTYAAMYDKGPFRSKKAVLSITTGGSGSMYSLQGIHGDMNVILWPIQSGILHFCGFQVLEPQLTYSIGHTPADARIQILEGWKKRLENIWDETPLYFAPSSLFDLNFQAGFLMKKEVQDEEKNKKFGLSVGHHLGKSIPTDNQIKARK
experiment-notes: Substrate activity at recombinant human NQO1 expressed in Escherichia coli assessed as reduction rate by measuring umol of NADPH utilized per umol of enzyme at 10 uM preincubated for 3 mins followed by NADPH addition measured at 2 secs interval for 5 mins by UV-Vis spectroscopy
Please respond with reported Activity for every item in the list.
Give bare numbers, in µmol/min.

Batch of 2 molecules: report Activity for each.
1. COc1cccc(NCc2oc3c(c2C)C(=O)C(=O)c2cc(C)c(C)cc2-3)c1
2. COc1ccccc1NCc1oc2c(c1C)C(=O)C(=O)c1cc(C)c(C)cc1-2

1. 955
2. 1040

Batch of 3 molecules: report Activity for each.
1. Cc1cc2c(cc1C)-c1oc(CN3CCN(c4ccc(F)cc4)CC3)c(C)c1C(=O)C2=O
2. Cc1cc2c(cc1C)-c1oc(CNCc3ccc(F)cc3)c(C)c1C(=O)C2=O
3. Cc1cc2c(cc1C)-c1oc(CNc3ccc(Cl)c(Cl)c3)c(C)c1C(=O)C2=O

1. 1460
2. 1200
3. 847

// data source = ChEMBL document CHEMBL4130353
